Please go through the items and note down their flow cytometry binding value (the table prints no name or unit).
target: T1, human PTPRG on the cell surface (U937 cells, HEL cells) (human, UniProt P23470 20-1445); assay: flow cytometry on whole U937 cells, screen of the 28 clones (Ctrl row = 0); PTPRG is named as the antigen on U937 cells only in the later examples
T1 construct: Endogenous PTPRG of human AML cell lines
T1 sequence (P23470 20-1445): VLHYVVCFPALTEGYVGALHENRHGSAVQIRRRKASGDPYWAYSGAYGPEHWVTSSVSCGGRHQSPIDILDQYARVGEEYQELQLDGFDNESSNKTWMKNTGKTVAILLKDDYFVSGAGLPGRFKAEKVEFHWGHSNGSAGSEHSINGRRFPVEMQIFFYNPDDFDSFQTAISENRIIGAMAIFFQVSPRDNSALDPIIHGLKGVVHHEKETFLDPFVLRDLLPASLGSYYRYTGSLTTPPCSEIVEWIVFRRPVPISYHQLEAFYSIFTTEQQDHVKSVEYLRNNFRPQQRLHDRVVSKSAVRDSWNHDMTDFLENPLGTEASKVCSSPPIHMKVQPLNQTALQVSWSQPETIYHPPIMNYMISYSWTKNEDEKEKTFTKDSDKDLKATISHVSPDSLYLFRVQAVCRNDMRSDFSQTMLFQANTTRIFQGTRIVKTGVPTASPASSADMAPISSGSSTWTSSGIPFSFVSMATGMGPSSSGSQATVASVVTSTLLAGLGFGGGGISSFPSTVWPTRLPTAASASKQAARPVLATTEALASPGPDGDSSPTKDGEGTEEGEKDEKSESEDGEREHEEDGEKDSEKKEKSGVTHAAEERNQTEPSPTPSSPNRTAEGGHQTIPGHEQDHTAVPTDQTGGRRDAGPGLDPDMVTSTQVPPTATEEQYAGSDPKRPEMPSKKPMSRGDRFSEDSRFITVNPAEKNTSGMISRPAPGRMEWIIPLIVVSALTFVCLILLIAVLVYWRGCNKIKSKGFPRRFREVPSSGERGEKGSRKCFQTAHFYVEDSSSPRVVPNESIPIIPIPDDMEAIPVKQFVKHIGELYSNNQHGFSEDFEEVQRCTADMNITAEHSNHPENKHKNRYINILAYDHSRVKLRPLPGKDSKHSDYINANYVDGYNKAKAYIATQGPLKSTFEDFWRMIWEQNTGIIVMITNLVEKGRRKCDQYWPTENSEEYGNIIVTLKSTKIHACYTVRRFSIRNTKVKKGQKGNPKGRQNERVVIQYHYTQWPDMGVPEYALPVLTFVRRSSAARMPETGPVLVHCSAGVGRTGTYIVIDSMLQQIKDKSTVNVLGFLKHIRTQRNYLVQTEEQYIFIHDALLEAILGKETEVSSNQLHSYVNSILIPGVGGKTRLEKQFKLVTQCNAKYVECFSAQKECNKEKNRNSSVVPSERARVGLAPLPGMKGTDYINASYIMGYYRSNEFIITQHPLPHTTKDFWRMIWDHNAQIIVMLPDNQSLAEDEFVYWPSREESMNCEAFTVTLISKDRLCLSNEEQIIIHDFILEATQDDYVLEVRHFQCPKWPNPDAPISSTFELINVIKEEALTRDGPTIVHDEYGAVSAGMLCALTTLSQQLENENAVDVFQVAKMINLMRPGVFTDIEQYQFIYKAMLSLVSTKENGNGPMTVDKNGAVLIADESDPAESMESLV
Numbers only.

binder	recorded.value
Fab_1187 (Fab, V domains shown, Chimeric rabbit/human Fab; also called P1187; mAb_1187) VH: AQSVEESGGRLVTPGTPLTLTCTVSGIDLSSYAMSWVRQAPGKGLEWIGVIDGSGSTWYANWVKGRFTISKTTTVDLKITSPTTEDTATYFCAREDYGSETIDFNIWGPGTLVTVSS VL: SFVLTQPASVQVNLGQTVSLTCTADTLSRRYASWYQQKPGQAPVLLIYRDTRRPSGVPDRFSGSSSGNTATLTISGAQAGDEADYYCATSDGSGSSYQYVFGGGTQLTVTG	29.3
Fab_1955 (Fab, V domains shown, Chimeric rabbit/human Fab; also called P1955; clone 1955) VH: AQSLEESGGRLVTPGTPLTLTCTASGFSLYSYDMSWVRQAPGKGLEWIGLIDGGGNTYYASWAKGRFTISKTSSTTVDLKMTSLTTEDTATYFCARELWPAYSSGAFNIWGPGTLVTISS VL: SFVLTQPASVQVNLGQTVSLTCTADTLSRRYASWYQQKPGQAPVLLIYRDTRRPSGVPDRFSGSSSGNTATLTISGAQAGDEADYYCVTTDGSGSSYLVVFGGGTQLTVTG	91.3
Fab_2653 (Fab, V domains shown, Chimeric rabbit/human Fab; also called P2653; clone 2653) VH: QEQLEESGGRLVTPGTPLTLTCTASGFSLSTYAMTWVRQAPGKGLEWIGIIDRYGYTYYANWARGRFTISKTSTTVDLKITSPTTEDTATYFCARDLPGYNVGTYFNMWGPGTLVTISS VL: SFVLTQPASVQVNLGQTVSLTCTADTLSRRYASWYQQKPGQAPVLFIYRDTSRPSGVPDRFSGSSSGSTATLTISGAQAGDEADYYCATSDGSGSSYQFVFGGGTQLTVTG	91.4

Here is another binder to look at.
Fab_240 (Fab, V domains shown, Chimeric rabbit/human Fab; also called P240; clone 240) VH: AQSLEESGGRLVTPGTPLTLTCTVSGFSLSAYAMSWVRQAPGKGLEWIGIISSYGNTYYATWAKGRFTISKTSTTVDLKITSPTTEDTATYFCARGDYGNGMSIWGPGTLVTVSS VL: SFVLTQPASVQVNLGQTVSLTCTADTLSRRYASWYQQKPGQAPVLLIYRDTRRPSGVPDRFSGSSSGNTATLTISGAQAGDEADYYCATSDGSGSSYQCVFGGGTQLTVTG has a reported flow cytometry binding value (the table prints no name or unit) of 92.7
